Recorded IC50 values for a group of compounds are listed next.
biological target: Glutamate NMDA receptor; GRIN1/GRIN2B (Homo sapiens, UniProt Q05586+Q13224); assay: Negative allosteric modulation of human GluN1A/GluN2B receptor expressed in T-REX-CHO cells preincubated for 5 mins followed by glutamate and glycine addition and measured after 5 mins by FLIPR assay
Sequence (Q13224 whole entry, other chains not shown): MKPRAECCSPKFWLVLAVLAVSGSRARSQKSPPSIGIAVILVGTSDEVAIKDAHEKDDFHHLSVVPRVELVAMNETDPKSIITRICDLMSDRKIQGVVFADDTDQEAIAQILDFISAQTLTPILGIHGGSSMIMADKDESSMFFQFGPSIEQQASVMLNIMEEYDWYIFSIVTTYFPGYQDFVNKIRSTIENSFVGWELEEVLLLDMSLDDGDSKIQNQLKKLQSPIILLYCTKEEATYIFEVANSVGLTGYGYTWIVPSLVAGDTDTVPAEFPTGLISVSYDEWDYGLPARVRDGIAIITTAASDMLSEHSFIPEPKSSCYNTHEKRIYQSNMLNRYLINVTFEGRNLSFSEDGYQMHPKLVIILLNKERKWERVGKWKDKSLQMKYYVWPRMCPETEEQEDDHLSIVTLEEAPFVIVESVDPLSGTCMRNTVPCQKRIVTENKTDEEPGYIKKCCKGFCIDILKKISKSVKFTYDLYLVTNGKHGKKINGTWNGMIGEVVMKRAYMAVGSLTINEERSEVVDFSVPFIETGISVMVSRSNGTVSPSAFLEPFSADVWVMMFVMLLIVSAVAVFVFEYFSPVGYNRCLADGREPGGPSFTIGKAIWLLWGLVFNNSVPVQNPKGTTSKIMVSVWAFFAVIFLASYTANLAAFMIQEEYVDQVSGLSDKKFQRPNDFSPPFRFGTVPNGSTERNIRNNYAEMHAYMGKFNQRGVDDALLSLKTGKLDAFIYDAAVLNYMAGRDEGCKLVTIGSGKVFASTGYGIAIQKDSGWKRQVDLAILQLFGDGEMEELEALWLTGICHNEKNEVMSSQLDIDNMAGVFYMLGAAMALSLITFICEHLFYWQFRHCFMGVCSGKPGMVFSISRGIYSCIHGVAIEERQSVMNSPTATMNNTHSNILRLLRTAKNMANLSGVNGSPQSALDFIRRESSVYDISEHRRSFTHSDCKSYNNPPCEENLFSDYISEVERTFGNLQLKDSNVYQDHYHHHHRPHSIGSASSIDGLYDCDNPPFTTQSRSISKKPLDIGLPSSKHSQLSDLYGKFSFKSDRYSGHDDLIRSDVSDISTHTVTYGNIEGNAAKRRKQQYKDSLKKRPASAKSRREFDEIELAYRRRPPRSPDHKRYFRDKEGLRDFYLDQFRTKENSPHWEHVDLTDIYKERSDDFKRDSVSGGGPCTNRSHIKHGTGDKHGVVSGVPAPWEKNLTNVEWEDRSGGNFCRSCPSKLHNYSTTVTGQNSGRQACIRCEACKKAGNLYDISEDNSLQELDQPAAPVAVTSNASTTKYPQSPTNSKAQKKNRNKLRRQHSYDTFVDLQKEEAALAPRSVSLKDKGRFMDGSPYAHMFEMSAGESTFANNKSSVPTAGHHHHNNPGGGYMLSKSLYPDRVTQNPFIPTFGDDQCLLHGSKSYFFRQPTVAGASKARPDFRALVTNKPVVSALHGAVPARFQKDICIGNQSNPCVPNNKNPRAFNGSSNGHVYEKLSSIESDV
The figure you give is taken to be in nM; do not add the unit.

{"columns": ["moleculeSmiles", "unitsText", "IC50"],
 "data": [
  ["FC(F)Oc1cc(-n2cc(Cn3ccnc3)nn2)ccc1Cl", "nM", 59],
  ["Cc1cnc(OCc2cn(-c3cccc(C(F)F)c3)nn2)nc1", "nM", 25],
  ["CNc1ccnc(OCc2cn(-c3ccc(F)c(OC(F)F)c3)nn2)n1", "nM", 7.8]
]}

Incoming: Recorded IC50 for FC(F)Oc1cc(-n2cc(COc3ncccn3)nn2)ccc1Cl , please?
Outgoing: 11
